test system: HeLa Kyoto; assay: melting temperature (median over replicates), in situ; higher = more thermally stable; details: cell cycle stage: G1/S
Reported values of melting temperature for individual entries

# Primary Sequence, melting temperature
rows = [
    ("MSLRKQTPSDFLKQIIGRPVVVKLNSGVDYRGVLACLDGYMNIALEQTEEYVNGQLKNKYGDAFIRGNNVLYISTQKRRM [LSM6]", "57.7 °C"),
    ("MGLELFLDLVSQPSRAVYIFAKKNGIPLELRTVDLVKGQHKSKEFLQINSLGKLPTLKDGDFILTESSAILIYLSCKYQTPDHWYPSDLQARARVHEYLGWHADCIRGTFGIPLWVQVLGPLIGVQVPEEKVERNRTAMDQALQWLEDKFLGDRPFLAGQQVTLADLMALEELMQPVALGYELFEGRPRLAAWRGRVEAFLGAELCQEAHSIILSILEQAAKKTLPTPSPEAYQAMLLRIARIP [GSTT2B]", "54.9 °C"),
]

###

Reported values of melting temperature for individual entries
test system: HeLa Kyoto; experiment: melting temperature (median over replicates), in situ; higher = more thermally stable; settings: cell cycle stage: mitosis

# Primary Sequence, Unit Info, melting temperature
records = [
    ("MSSNECFKCGRSGHWARECPTGGGRGRGMRSRGRGGFTSDRGFQFVSSSLPDICYRCGESGHLAKDCDLQEDACYNCGRGGHIAKDCKEPKREREQCCYNCGKPGHLARDCDHADEQKCYSCGEFGHIQKDCTKVKCYRCGETGHVAINCSKTSEVNCYRCGESGHLARECTIEATA [CNBP]", "°C", 58.8),
    ("MVGVKPVGSDPDFQPELSGAGSRLAVVKFTMRGCGPCLRIAPAFSSMSNKYPQAVFLEVDVHQCQGTAATNNISATPTFLFFRNKVRIDQYQGADAVGLEEKIKQHLENDPGSNEDTDIPKGYMDLMPFINKAGCECLNESDEHGFDNCLRKDTTFLESDCDEQLLITVAFNQPVKLYSMKFQGPDNGQGPKYVKIFINLPRSMDFEEAERSEPTQALELTEDDIKEDGIVPLRYVKFQNVNSVTIFVQSNQGEEETTRISYFTFIGTPVQATNMNDFKRVVGKKGESH [TXNL1]", "°C", 50.2),
    ("MAAVDSFYLLYREIARSCNCYMEALALVGAWYTARKSITVICDFYSLIRLHFIPRLGSRADLIKQYGRWAVVSGATDGIGKAYAEELASRGLNIILISRNEEKLQVVAKDIADTYKVETDIIVADFSSGREIYLPIREALKDKDVGILVNNVGVFYPYPQYFTQLSEDKLWDIINVNIAAASLMVHVVLPGMVERKKGAIVTISSGSCCKPTPQLAAFSASKAYLDHFSRALQYEYASKGIFVQSLIPFYVATSMTAPSNFLHRCSWLVPSPKVYAHHAVSTLGISKRTTGYWSHSIQFLFAQYMPEWLWVWGANILNRSLRKEALSCTA [HSDL1]", "°C", 54.3),
    ("MACAAVMIPGLLRCSVGAIRIEAASLRLTLSTLRHLTLTSIMKSKRKTDHMERTASVLRREIVSAAKVCGAASESPSVKSLRLLVADQDFSFKAGQWVDFFIPGVSVVGGFSICSSPRLLEQERVIELAVKYTNHPPALWVHNTCTLDCEVAVRVGGEFFFDPQPADASRNLVLIAGGVGINPLLSILRHAADLLREQANKRNGYEIGTIKLFYSAKNTSELLFKKNILDLVNEFPEKIACSLHVTKQTTQINAELKPYITEGRITEKEIRDHISKETLFYICGPPPMTDFFSKQLENNHVPKEHICFEKWW [OXNAD1]", "°C", 54.7),
    ("MIEAEEQQPCKTDFYSELPKVELHAHLNGSISSHTMKKLIAQKPDLKIHDQMTVIDKGKKRTLEECFQMFQTIHQLTSSPEDILMVTKDVIKEFADDGVKYLELRSTPRRENATGMTKKTYVESILEGIKQSKQENLDIDVRYLIAVDRRGGPLVAKETVKLAEEFFLSTEGTVLGLDLSGDPTVGQAKDFLEPLLEAKKAGLKLALHLSEIPNQKKETQILLDLLPDRIGHGTFLNSGEGGSLDLVDFVRQHRIPLELCLTSNVKSQTVPSYDQHHFGFWYSIAHPSVICTDDKGVFATHLSQEYQLAAETFNLTQSQVWDLSYESINYIFASDSTRSELRKKWNHLKPRVLHI [ADAL]", "°C", 57.2),
]

###

Reported values of melting temperature for individual entries
test system: HeLa Kyoto; experiment: melting temperature (median over replicates), in situ; higher = more thermally stable; settings: cell cycle stage: G1/S
Readout Kind: melting temperature (°C)

# Primary Sequence, Test Result
records = [
    ("MSASVVSVISRFLEEYLSSTPQRLKLLDAYLLYILLTGALQFGYCLLVGTFPFNSFLSGFISCVGSFILAVCLRIQINPQNKADFQGISPERAFADFLFASTILHLVVMNFVG [DAD1]", 54.5),
    ("MLVLRSALTRALASRTLAPQMCSSFATGPRQYDGIFYEFRSYYLKPSKMNEFLENFEKNAHLRTAHSELVGYWSVEFGGRMNTVFHIWKYDNFAHRTEVRKALAKDKEWQEQFLIPNLALIDKQESEITYLVPWCKLEKPPKEGVYELATFQMKPGGPALWGDAFKRAVHAHVNLGYTKLVGVFHTEYGALNRVHVLWWNESADSRAAGRHKSHEDPRVVAAVRESVNYLVSQQNMLLIPTSFSPLK [NIPSNAP3A]", 56.2),
]

###

Reported values of thermal stability score for individual entries
tested on: HeLa Kyoto; assay: thermal stability score vs G1/S (z-score of summed log2 fold changes over temperatures); higher = more thermally stable than in G1/S; conditions: cell cycle stage: mitosis
Readout Kind: thermal stability score

# Primary Sequence, Readout Kind, Test Result
records = [
    ("MSSNECFKCGRSGHWARECPTGGGRGRGMRSRGRGGFTSDRGFQFVSSSLPDICYRCGESGHLAKDCDLQEDACYNCGRGGHIAKDCKEPKREREQCCYNCGKPGHLARDCDHADEQKCYSCGEFGHIQKDCTKVKCYRCGETGHVAINCSKTSEVNCYRCGESGHLARECTIEATA [CNBP]", "thermal stability score", -2.48),
    ("MEVKPPPGRPQPDSGRRRRRRGEEGHDPKEPEQLRKLFIGGLSFETTDDSLREHFEKWGTLTDCVVMRDPQTKRSRGFGFVTYSCVEEVDAAMCARPHKVDGRVVEPKRAVSREDSVKPGAHLTVKKIFVGGIKEDTEEYNLRDYFEKYGKIETIEVMEDRQSGKKRGFAFVTFDDHDTVDKIVVQKYHTINGHNCEVKKALSKQEMQSAGSQRGRGGGSGNFMGRGGNFGGGGGNFGRGGNFGGRGGYGGGGGGSRGSYGGGDGGYNGFGGDGGNYGGGPGYSSRGGYGGGGPGYGNQGGGYGGGGGYDGYNEGGNFGGGNYGGGGNYNDFGNYSGQQQSNYGPMKGGSFGGRSSGSPYGGGYGSGGGSGGYGSRRF [HNRNPA3]", "thermal stability score", 4.71),
    ("MGKMAAAVGSVATLATEPGEDAFRKLFRFYRQSRPGTADLEGVIDFSAAHAARGKGPGAQKVIKSQLNVSSVSEQNAYRAGLQPVSKWQAYGLKGYPGFIFIPNPFLPGYQWHWVKQCLKLYSQKPNVCNLDKHMSKEETQDLWEQSKEFLRYKEATKRRPRSLLEKLRWVTVGYHYNWDSKKYSADHYTPFPSDLGFLSEQVAAACGFEDFRAEAGILNYYRLDSTLGIHVDRSELDHSKPLLSFSFGQSAIFLLGGLQRDEAPTAMFMHSGDIMIMSGFSRLLNHAVPRVLPNPEGEGLPHCLEAPLPAVLPRDSMVEPCSMEDWQVCASYLKTARVNMTVRQVLATDQNFPLEPIEDEKRDISTEGFCHLDDQNSEVKRARINPDS [ALKBH1]", "thermal stability score", 0.558),
    ("MQNYKYDKAIVPESKNGGSPALNNNPRRSGSKRVLLICLDLFCLFMAGLPFLIIETSTIKPYHRGFYCNDESIKYPLKTGETINDAVLCAVGIVIAILAIITGEFYRIYYLKKSRSTIQNPYVAALYKQVGCFLFGCAISQSFTDIAKVSIGRLRPHFLSVCNPDFSQINCSEGYIQNYRCRGDDSKVQEARKSFFSGHASFSMYTMLYLVLYLQARFTWRGARLLRPLLQFTLIMMAFYTGLSRVSDHKHHPSDVLAGFAQGALVACCIVFFVSDLFKTKTTLSLPAPAIRKEILSPVDIIDRNNHHNMM [PLPP3]", "thermal stability score", 5.11),
    ("MAAVVAKREGPPFISEAAVRGNAAVLDYCRTSVSALSGATAGILGLTGLYGFIFYLLASVLLSLLLILKAGRRWNKYFKSRRPLFTGGLIGGLFTYVLFWTFLYGMVHVY [EMC6]", "thermal stability score", -0.846),
]

The measurements presented in this section are drawn from the supplement of paper PMC5998384.
